Value source: patent US20030068675

Target: T1, ZFP SBS#735 (synthetic)
T1 chain: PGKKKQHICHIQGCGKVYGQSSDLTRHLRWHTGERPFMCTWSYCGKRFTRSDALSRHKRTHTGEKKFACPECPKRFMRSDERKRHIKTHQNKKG
Assay: EMSA
Settings: tags: MBP fusion
endpoint_name: Kd (nM)

> print(dat)
                                     binder  endpoint.name  result.units  endpoint.value
1  GCGGTGGCTC (dsDNA) DNA 1: GCGGTGGCTC DNA 2: GAGCCACCGC             Kd            nM            0.05
